# Assay Text: NCI Yeast Anticancer Drug Screen. Data for the mec2-1 strain (AID 157)
# Study Conditions: S. cerevisiae mec2-1 strain, at 50.0 µM, active compounds read high
Compounds without any hit were thinned out: in the full panel of roughly 79,000, 15% have a hit.
Where growth inhibition equals or exceeds -10%, the correct label is Satisfied; where it does not, the label is Not satisfied.

Look over these answered cases.
CC1(C)COCN1COCCOCN1COCC1(C)C :: Not satisfied
C(=C\c1cc(-c2ccc3ccccc3n2)nc2ccc3ccccc3c12)/c1ccc2ccccc2n1 :: Satisfied

QUERY: Does O=C(Nc1cccc2ccccc12)OC1CCCC1 have a reported growth inhibition of at least -10%?
RESULT: Not satisfied

QUERY: Note, next up: COC(=O)c1nc(N)nc(C(=O)OC)c1C(=O)C(C)C
RESULT: Not satisfied

QUERY: Note, next up: COc1ccc(CC2CCCNC2C(=O)O)cc1 (configuration not stated)
RESULT: Not satisfied

QUERY: # iterate: O=C(c1ccc2c(c1)C(=O)OC2=O)c1ccc2c(c1)C(=O)OC2=O
RESULT: Not satisfied

QUERY: What do we get for CC(C)OC(=S)Nc1ccc(Cl)c(COC(C)(C)C)c1 ?
RESULT: Not satisfied

QUERY: Request: N#Cc1cc2c(n(C3OC(CO)C(O)C(O)C3O)c1=S)CCCCCC2 (configuration not stated)
RESULT: Satisfied

QUERY: Could you do the same for CC(=O)C1CCC(CCCC(C)C)CC1 (configuration not stated) , please?
RESULT: Satisfied

QUERY: What do we get for CCCCCCCCCC(=O)N(C)OC ?
RESULT: Satisfied

QUERY: Now consider Cc1cccc(C)c1NC(=O)C(=O)C(C#N)c1c(Cl)cccc1Cl (configuration not stated) and answer again.
RESULT: Satisfied

QUERY: # iterate: CC(=O)OC1OCCCC1Cl (configuration not stated)
RESULT: Not satisfied
